- Target under test: TLX LBD (Homo sapiens (Human), UniProt Q9Y466)
- Sequence (Q9Y466 155-383): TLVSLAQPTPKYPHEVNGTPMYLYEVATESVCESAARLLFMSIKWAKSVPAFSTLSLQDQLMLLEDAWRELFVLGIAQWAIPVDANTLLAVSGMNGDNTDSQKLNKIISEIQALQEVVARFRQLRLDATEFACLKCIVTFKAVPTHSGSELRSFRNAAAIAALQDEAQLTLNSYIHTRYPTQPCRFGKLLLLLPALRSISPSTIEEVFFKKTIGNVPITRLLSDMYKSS
- Method summary: ALPHA screen assay for TLX LBD and coactivator peptide recruitment
- Assay type: biochemical
- Condition summary: Table 3; 200 μM; mean (std. dev.)
Recorded Average ALPHA signal at 200 μM (std. dev.) for the following compounds

{"Compound": "CC(C)CCNc1ncccc1C(=O)N1C[C@H](C)N(Cc2ccccc2)C[C@H]1CC(=O)O [Compound 82]", "Value": "1.11 (0.02)"}

Asked: Which Average ALPHA signal at 200 μM (std. dev.) reading was recorded for the compound CC(C)CCNc1ncccc1C(=O)N1CCN(Cc2ccccc2)[C@@H](C)[C@H]1CC(=O)O [Compound 77] ?
Given back: 1.09 (0.06)

Asked: Which Average ALPHA signal at 200 μM (std. dev.) reading was recorded for the compound C[C@H]1CN(C(=O)c2cccnc2NC2CC2)CCN1Cc1ccccc1 [Compound 91] ?
Given back: 1.48 (0.04)

Asked: Which Average ALPHA signal at 200 μM (std. dev.) reading was recorded for the compound CC(C)CCNc1ncccc1C(=O)N1CCN(Cc2ccc3cnccc3c2)C[C@@H]1C [Compound 40] ?
Given back: 2.48 (0.02)

Asked: Which Average ALPHA signal at 200 μM (std. dev.) reading was recorded for the compound CC(C)CCNc1ncccc1C(=O)N1CCN(Cc2ccccc2C(=O)O)CC1 [Compound 58] ?
Given back: 1.30 (0.05)

Asked: Which Average ALPHA signal at 200 μM (std. dev.) reading was recorded for the compound CC(C)CCNc1ncccc1C(=O)N1CCN(Cc2ccccc2)C[C@H]1Cc1ccccc1 [Compound 95] ?
Given back: 2.37 (0.19)

====

- Target under test: UniProtKB Q9Y466
- Method summary: ALPHA screen assay for TLX LBD and coactivator peptide recruitment
- Condition summary: Table 3
Value kind: EC50 (nM)
Only the number, expressed in nM, is required.

Consider the reported EC50 for these molecules:
{"Molecule": "COC(=O)C[C@H]1CN(C(=O)c2cccnc2NCCC(C)C)C[C@H](C)N1Cc1ccccc1", "Value": 0.012}
{"Molecule": "Cc1cccc(CN2CCN(C(=O)c3cccnc3NCCC(C)C)[C@@H](C)C2)c1", "Value": 0.0143}
{"Molecule": "Cc1ccc(CN2CCN(C(=O)c3cccnc3NCCC(C)C)[C@@H](C)C2)cc1", "Value": 0.0187}

Asked: Which EC50 reading was recorded for the molecule Cc1cc(C(=O)N2CCN(C(c3ccccc3)c3ccccc3)CC2)nn1C [Compound 30, reference compound] ?
Given back: 0.0673

====

- Target under test: TLX LBD (Homo sapiens (Human))
- Method summary: ALPHA screen assay for TLX LBD and coactivator peptide recruitment
- Format: biochemical
- Condition summary: Table 3; 200 μM; mean (std. dev.)
Value kind: Average ALPHA signal at 200 μM (std. dev.)

{"Sample smiles": "CC(C)CCNc1ncccc1C(=O)N1CCN(Cc2c[nH]c3ccccc23)C[C@@H]1C", "Value": "0.96 (0.05)"}
{"Sample smiles": "Cc1cccc(CN2CCN(C(=O)c3cccnc3NCCC(C)C)[C@H](C)C2)c1", "Value": "3.28 (0.09)"}
{"Sample smiles": "CC(C)CCNc1ncccc1C(=O)N1C[C@@H](CC(=O)O)N(Cc2ccccc2)[C@@H](C)C1", "Value": "0.99 (0.04)"}
{"Sample smiles": "COC(=O)C[C@@H]1CN(Cc2ccccc2)[C@@H](C)CN1C(=O)c1cccnc1NCCC(C)C", "Value": "2.96 (0.08)"}

Proceed to the following item.
Asked: Which Average ALPHA signal at 200 μM (std. dev.) reading was recorded for the molecule C[C@@H]1CN(C(=O)c2cccnc2NC2CC2)CCN1Cc1ccccc1 ?
Given back: 1.35 (0.04)
